Recorded values, source patent US7772252B2.

ASSAY SYSTEM: cloned human dopamine D3 receptors (Homo sapiens)
Construct: expressed in transfected cells; membrane homogenate
Sequence (P35462 whole entry): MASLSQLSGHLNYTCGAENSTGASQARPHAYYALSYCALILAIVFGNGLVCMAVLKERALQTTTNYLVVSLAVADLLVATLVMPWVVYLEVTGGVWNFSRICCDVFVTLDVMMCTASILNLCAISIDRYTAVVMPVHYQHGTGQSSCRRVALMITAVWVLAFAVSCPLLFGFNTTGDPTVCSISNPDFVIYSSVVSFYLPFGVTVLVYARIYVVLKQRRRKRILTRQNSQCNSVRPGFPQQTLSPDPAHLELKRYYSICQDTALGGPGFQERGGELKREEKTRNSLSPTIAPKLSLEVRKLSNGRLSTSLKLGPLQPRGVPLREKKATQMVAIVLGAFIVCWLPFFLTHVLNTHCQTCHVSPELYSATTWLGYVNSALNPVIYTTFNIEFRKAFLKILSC
RUN DESCRIPTION: [N-Methyl-3H]Spiroperidol binding to cloned human dopamine D3 receptors
TEST CONDITIONS: read-out: D3 Ki
Consider the following molecules; for each one, report its log10 Ki.
The base-10 logarithm of Ki, taken with Ki in nM, is what appears here.

1) O=C(NCCCn1ccnc1)[C@@H]1C[C@H]1CN1CCN(c2nn(-c3ccc(C(F)(F)F)cc3)c3ccsc23)CC1 :: 0.88

Lab note: each molecule below needs its log10 Ki filled in.
1. CCOC(=O)c1cc2ccc(N3CCCN(CC4CC4C(=O)NC4CCC(CC)CC4)CC3)cc2s1 (racemic)
2. O=C(NCCCN1CCOCC1)C1(CCN2CCC(c3noc4ccsc34)CC2)CC1
3. O=C(NCCOc1ccccc1)[C@@H]1C[C@H]1CN1CCC(c2noc3ccsc23)CC1
4. CCC1CCC(NC(=O)C2CC2CN2CCCN(c3onc4c3CCc3ccc(OC)cc3-4)CC2)CC1 (racemic)
5. O=C(NC1CCN(Cc2ccc(C(F)(F)F)cc2)CC1)[C@@H]1C[C@H]1CN1CCC(c2noc3ccsc23)CC1
6. COc1ccc2c(c1)c(N1CCN(C[C@@H]3C[C@H]3C(=O)N3CCN(Cc4ccc(Cl)cc4)CC3)CC1)nn2C

1: 1.84; 2: 2.27; 3: 1.14; 4: 1.53; 5: 0.32; 6: 1.43
